pKi values for the molecules below.
EXPERIMENTAL_TARGET: JAK3 (Homo sapiens, UniProt P52333)
Sequence (P52333 1-1124): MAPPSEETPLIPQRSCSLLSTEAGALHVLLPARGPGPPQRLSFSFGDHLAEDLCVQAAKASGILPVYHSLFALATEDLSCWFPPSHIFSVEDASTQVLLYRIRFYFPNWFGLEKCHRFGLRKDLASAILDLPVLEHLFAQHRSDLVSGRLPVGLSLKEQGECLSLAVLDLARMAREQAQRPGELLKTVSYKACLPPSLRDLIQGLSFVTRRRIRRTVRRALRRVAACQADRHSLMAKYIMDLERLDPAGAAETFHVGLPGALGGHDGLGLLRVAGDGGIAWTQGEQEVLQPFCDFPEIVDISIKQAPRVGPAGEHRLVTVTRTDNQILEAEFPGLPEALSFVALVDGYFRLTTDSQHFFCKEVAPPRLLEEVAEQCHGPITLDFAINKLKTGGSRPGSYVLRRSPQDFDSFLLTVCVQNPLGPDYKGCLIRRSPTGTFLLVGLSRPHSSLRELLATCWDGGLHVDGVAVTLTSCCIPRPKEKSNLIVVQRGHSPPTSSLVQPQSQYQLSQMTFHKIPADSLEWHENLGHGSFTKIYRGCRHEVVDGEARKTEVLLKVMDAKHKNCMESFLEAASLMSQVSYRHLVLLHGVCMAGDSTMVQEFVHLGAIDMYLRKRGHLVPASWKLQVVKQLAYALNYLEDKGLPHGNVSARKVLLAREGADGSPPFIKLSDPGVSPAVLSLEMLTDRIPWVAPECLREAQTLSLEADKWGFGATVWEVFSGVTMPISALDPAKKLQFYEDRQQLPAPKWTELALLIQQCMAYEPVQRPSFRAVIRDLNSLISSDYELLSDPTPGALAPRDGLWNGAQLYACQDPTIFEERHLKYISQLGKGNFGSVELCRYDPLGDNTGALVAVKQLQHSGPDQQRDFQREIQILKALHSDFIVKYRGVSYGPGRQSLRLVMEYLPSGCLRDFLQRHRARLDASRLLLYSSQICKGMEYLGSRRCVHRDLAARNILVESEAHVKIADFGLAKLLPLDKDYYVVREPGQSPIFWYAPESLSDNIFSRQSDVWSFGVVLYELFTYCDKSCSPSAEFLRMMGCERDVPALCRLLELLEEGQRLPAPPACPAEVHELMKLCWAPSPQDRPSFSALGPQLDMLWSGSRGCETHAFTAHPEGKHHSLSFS
pKi: −log10 of the molar value.

{"MOLECULE": "CC1CC=C(c2ncnc3[nH]ccc23)C1C (centres unmarked)", "pKi": "> 6.30"}

Moving on to the next molecule.
Task item: Check the records and state pKi for CC(C)Cc1ncnc2[nH]ccc12
Reply: 5.30 to 6.30

---

Consider molecules characterized by their Ki with JAK2 (Homo sapiens).

Task item: GET Ki | system: JAK2 (Homo sapiens) | item: CC(C)Cc1ncnc2[nH]ccc12
Reply: 0.5 to 5 µM

Task item: State measured Ki of the molecule CC(C)CCc1ncnc2[nH]ccc12 with JAK2 (Homo sapiens).
Reply: < 0.5 µM

Task item: Recall the reported Ki of COC(=O)C(C)Cc1ncnc2[nH]ccc12 (stereo not drawn) when tested on JAK2 (Homo sapiens).
Reply: > 5 µM

Task item: Report Ki on JAK2 (Homo sapiens) for this entry: c1nc(CCC2OCCCO2)c2cc[nH]c2n1
Reply: 0.5 to 5 µM

Task item: System JAK2 (Homo sapiens). Read-out Ki. Item C=C(c1ccccc1)c1ncnc2[nH]ccc12 . Report value.
Reply: > 5 µM

Task item: Provide Ki, recorded with JAK2 (Homo sapiens), of CC1CCCC=C1c1ncnc2[nH]ccc12 (stereo not drawn)
Reply: 0.5 to 5 µM

---

pKi: −log10 of the molar value.
pKi, ROCK (Homo sapiens), per-entry values.

Some solved cases for reference:
{"COMPOUND": "C=C(c1ncnc2[nH]ccc12)C1CCCCC1", "EXPERIMENTAL_TARGET": "ROCK (Homo sapiens)", "pKi": "5.30 to 6.30"}
{"COMPOUND": "CC(C)CCc1ncnc2[nH]ccc12", "EXPERIMENTAL_TARGET": "ROCK (Homo sapiens)", "pKi": "5.30 to 6.30"}
{"COMPOUND": "C1=C(c2ncnc3[nH]ccc23)CCSC1", "EXPERIMENTAL_TARGET": "ROCK (Homo sapiens)", "pKi": "5.30 to 6.30"}
{"COMPOUND": "CC(c1ccccc1)c1ncnc2[nH]ccc12 (centres unmarked)", "EXPERIMENTAL_TARGET": "ROCK (Homo sapiens)", "pKi": "5.30 to 6.30"}
{"COMPOUND": "c1nc(CC2CCCCC2)c2cc[nH]c2n1", "EXPERIMENTAL_TARGET": "ROCK (Homo sapiens)", "pKi": "5.30 to 6.30"}
{"COMPOUND": "CC(=O)N1CC=C(c2ncnc3[nH]ccc23)CC1", "EXPERIMENTAL_TARGET": "ROCK (Homo sapiens)", "pKi": "5.30 to 6.30"}
{"COMPOUND": "C=Cc1ncnc2[nH]ccc12", "EXPERIMENTAL_TARGET": "ROCK (Homo sapiens)", "pKi": "5.30 to 6.30"}
{"COMPOUND": "CC(C)(C)OC(=O)N1CC=C(c2ncnc3[nH]ccc23)CC1", "EXPERIMENTAL_TARGET": "ROCK (Homo sapiens)", "pKi": "5.30 to 6.30"}
{"COMPOUND": "C1=C(c2ncnc3[nH]ccc23)CCNC1", "EXPERIMENTAL_TARGET": "ROCK (Homo sapiens)", "pKi": "5.30 to 6.30"}
{"COMPOUND": "COC(=O)C(C)Cc1ncnc2[nH]ccc12 (centres unmarked)", "EXPERIMENTAL_TARGET": "ROCK (Homo sapiens)", "pKi": "5.30 to 6.30"}

Continue with the next compound.
Task item: Write down measured pKi (ROCK (Homo sapiens)) for this compound. C1=C(c2ncnc3[nH]ccc23)C2CCC1C2 (centres unmarked)
Reply: 5.30 to 6.30

---

pKi: −log10 of the molar value.
Reported values: pKi for JAK2 (Homo sapiens, UniProt O60674), one per item.

{"COMPOUND": "CC(=O)N1CC=C(c2ncnc3[nH]ccc23)CC1", "pKi": "< 5.30"}
{"COMPOUND": "Fc1ccc(/C=C/c2ncnc3[nH]ccc23)cc1", "pKi": "> 6.30"}
{"COMPOUND": "C=C(c1ncnc2[nH]ccc12)C1CCCC1", "pKi": "> 6.30"}
{"COMPOUND": "C(=C\\c1ncnc2[nH]ccc12)/c1ccccc1 [Compound 4, 4-styryl-7H-pyrrolo[2,3-d]pyrimidine]", "pKi": "> 6.30"}
{"COMPOUND": "c1nc(CC2CCCCC2)c2cc[nH]c2n1", "pKi": "> 6.30"}

Task item: Quote pKi with test system JAK2 (Homo sapiens, UniProt O60674) for CC1CC=C(c2ncnc3[nH]ccc23)C1C (stereo not shown)
Reply: > 6.30

Task item: GET pKi | system: JAK2 (Homo sapiens, UniProt O60674) | item: CC(C)(C#N)CCCCc1ncnc2[nH]ccc12
Reply: 5.30 to 6.30

Task item: With JAK2 (Homo sapiens, UniProt O60674) as the test system, provide measured pKi for this compound: c1nc(C2CCCC2)c2cc[nH]c2n1
Sequence (O60674 whole entry): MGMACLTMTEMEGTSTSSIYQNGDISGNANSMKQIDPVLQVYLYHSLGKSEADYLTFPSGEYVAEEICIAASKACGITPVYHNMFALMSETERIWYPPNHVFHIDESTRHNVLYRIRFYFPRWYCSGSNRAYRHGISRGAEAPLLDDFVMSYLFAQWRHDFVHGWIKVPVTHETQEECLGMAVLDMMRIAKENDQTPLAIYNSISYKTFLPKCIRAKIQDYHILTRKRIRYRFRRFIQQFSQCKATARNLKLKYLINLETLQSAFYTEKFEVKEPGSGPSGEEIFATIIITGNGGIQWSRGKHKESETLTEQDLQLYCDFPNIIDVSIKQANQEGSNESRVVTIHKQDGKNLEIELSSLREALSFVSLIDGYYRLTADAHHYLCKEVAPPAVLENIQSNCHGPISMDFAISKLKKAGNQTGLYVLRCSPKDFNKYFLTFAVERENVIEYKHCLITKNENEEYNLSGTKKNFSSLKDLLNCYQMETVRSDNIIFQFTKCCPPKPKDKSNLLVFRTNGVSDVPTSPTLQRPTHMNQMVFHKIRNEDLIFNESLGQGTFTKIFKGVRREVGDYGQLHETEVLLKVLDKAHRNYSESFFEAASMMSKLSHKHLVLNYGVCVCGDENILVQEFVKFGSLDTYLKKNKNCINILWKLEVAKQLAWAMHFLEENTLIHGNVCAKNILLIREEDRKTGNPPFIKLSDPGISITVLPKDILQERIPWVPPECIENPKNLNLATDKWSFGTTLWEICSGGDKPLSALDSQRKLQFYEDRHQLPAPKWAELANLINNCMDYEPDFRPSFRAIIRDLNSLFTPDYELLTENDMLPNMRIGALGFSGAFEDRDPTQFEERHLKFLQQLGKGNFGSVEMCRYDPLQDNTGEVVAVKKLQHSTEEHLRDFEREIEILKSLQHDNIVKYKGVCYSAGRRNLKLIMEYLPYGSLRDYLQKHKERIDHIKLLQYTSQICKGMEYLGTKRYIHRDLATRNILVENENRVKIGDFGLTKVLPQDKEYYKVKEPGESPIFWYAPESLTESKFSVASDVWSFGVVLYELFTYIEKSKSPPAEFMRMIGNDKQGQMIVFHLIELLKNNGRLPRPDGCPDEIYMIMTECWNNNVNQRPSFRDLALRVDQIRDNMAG
Reply: 5.30 to 6.30

Task item: Look up and report pKi, with JAK2 (Homo sapiens, UniProt O60674) as system, for C=C(c1ncnc2[nH]ccc12)C1CCCCC1
Reply: 5.30 to 6.30

Task item: Recall the reported pKi of C1=C(c2ncnc3[nH]ccc23)CCNC1 on JAK2 (Homo sapiens, UniProt O60674) and write it down.
Reply: < 5.30

---

EXPERIMENTAL_TARGET: JAK3 (Homo sapiens, UniProt P52333)
Sequence (P52333 1-1124): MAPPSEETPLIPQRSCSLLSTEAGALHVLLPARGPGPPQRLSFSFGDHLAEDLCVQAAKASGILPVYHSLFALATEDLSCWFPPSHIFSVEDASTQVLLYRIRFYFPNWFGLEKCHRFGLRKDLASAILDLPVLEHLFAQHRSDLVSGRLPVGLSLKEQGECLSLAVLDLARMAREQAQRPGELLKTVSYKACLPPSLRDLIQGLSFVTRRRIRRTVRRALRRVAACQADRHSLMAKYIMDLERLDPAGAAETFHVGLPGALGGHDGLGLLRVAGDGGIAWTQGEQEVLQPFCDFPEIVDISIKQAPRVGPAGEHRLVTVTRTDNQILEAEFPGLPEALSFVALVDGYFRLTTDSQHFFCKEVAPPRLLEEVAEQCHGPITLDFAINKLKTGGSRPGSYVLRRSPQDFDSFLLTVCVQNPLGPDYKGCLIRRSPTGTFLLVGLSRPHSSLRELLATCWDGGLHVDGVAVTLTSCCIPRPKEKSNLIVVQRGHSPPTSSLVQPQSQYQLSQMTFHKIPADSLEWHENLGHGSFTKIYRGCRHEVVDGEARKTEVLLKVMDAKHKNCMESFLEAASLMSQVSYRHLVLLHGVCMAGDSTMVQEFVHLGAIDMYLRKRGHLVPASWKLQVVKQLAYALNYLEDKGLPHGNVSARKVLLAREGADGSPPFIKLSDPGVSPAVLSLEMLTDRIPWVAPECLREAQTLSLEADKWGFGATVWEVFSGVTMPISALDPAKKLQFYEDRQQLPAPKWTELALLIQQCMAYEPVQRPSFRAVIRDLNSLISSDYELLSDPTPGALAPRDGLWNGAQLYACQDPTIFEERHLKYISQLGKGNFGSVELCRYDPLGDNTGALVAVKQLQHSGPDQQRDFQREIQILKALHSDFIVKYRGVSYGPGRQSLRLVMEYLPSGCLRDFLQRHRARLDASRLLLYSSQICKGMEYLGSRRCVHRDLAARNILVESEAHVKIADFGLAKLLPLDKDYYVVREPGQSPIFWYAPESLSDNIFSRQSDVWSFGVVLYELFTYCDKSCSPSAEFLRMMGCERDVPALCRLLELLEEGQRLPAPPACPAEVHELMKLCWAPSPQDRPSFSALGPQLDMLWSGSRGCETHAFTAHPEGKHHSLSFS
pKi: −log10 of the molar value.
QUANTITY_KIND: pKi

{"COMPOUND": "CC(C)CCc1ncnc2[nH]ccc12", "EXPERIMENTAL_TARGET": "JAK3 (Homo sapiens, UniProt P52333)", "pKi": "> 6.30"}
{"COMPOUND": "CC(C)(C)OC(=O)N1CC=C(c2ncnc3[nH]ccc23)CC1", "EXPERIMENTAL_TARGET": "JAK3 (Homo sapiens, UniProt P52333)", "pKi": "> 6.30"}
{"COMPOUND": "c1nc(CC2CCCCC2)c2cc[nH]c2n1", "EXPERIMENTAL_TARGET": "JAK3 (Homo sapiens, UniProt P52333)", "pKi": "> 6.30"}
{"COMPOUND": "C1=C(c2ncnc3[nH]ccc23)CCNC1", "EXPERIMENTAL_TARGET": "JAK3 (Homo sapiens, UniProt P52333)", "pKi": "< 5.30"}
{"COMPOUND": "C=C(c1ncnc2[nH]ccc12)C1CCCN(C(=O)OC(C)(C)C)C1 (stereo not drawn)", "EXPERIMENTAL_TARGET": "JAK3 (Homo sapiens, UniProt P52333)", "pKi": "5.30 to 6.30"}

Task item: Return pKi for the following compound: C1=C(c2ncnc3[nH]ccc23)CCC1
Reply: > 6.30

Task item: Give reported pKi value for COC(=O)C(C)Cc1ncnc2[nH]ccc12 (stereo not drawn)
Reply: < 5.30
